Recorded EC50 GlucagonR [pM], CRE luciferase reporter gene assay, one value per entry.
assay.target: human glucagon receptor (human, UniProt P47871 26-477)
Sequence (P47871 26-477): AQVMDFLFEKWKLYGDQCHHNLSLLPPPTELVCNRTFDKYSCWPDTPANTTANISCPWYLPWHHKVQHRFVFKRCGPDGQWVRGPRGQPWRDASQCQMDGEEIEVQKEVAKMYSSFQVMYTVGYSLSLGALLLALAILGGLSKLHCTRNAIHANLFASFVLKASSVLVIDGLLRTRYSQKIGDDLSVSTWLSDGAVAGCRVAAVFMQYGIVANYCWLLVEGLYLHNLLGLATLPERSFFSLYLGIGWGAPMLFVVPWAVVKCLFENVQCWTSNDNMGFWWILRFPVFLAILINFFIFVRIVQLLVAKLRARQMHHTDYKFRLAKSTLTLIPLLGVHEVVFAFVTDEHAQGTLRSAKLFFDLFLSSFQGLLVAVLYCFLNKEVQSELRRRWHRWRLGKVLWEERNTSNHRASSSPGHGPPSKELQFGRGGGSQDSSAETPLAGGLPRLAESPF
assay.summary: cell-based or functional assay
*1 amine or outer side, *2 acyl side, *3 side chain or, on linkers, in order; H or OH if unused. Side-chain parts run from the residue outwards. [ ]: non-standard residue; d: D form. The star is where a group is joined. C18 diacid = O=C(O)CCCCCCCCCCCCCCCCC(=O)*; γGlu = O=C(O)[C@H](CCC(=O)[*:2])N[*:1]; Desaminohistidyl = O=C(CCc1c[nH]cn1)*; Ac4c = NC1(C(=O)O)CCC1
endpoint.label: EC50 GlucagonR [pM], CRE luciferase reporter gene assay (pM)

INSERT INTO assay_data (binder, observed_result) VALUES
  ('XXHGTFTSDYSKYLEGRAAREFIAWLLKK (Imp (desamino-His) at 7; Acb at 8; Lys35 N-epsilon acylated with 17-carboxyheptadecanoyl-γGlu-γGlu-Ado-γGlu-Ado-γGlu-Ado-γGlu-; C-terminal amide (GLP-1(7-37) numbering))', 222),
  ('[Desaminohistidyl][Ac4c]HGTFTSDVSKYLEEQAAREFIAWLLK([Gly-Ser-Glu-Gly-Ser-γGlu-γGlu-C18 diacid])T-NH2', 40),
  ('XXHGTFTSDYSRYLEGRAAREFIAWLLRK (Imp (desamino-His) at 7; Acb at 8; Lys35 N-epsilon acylated with 17-carboxyheptadecanoyl-γGlu-γGlu-Ado-γGlu-Ado-γGlu-Ado-γGlu-; C-terminal amide (GLP-1(7-37) numbering))', 226);

Data origin, for the record: patent US20160102129A1
